Biological target: human Cyclin E/CDK2 (Homo sapiens)
Test: CDK2 FlashPlate Assay (inhibition of Rb phosphorylation)
Settings: Cyclin E/CDK2, Rb-coated FlashPlates, 33P-ATP, 25 min room temperature
Experimental Endpoint: IC50

# lookup: IC50 of "COc1cc[nH]c1/C=C1\C(=O)Nc2ccc3[nH]c(-c4ccc(C(=O)O)cc4)nc3c21" < 3.5 µM

====

# reported inhibition at 0.5 µM; entries follow
Target: human Cyclin E/CDK2 (Homo sapiens)
Construct: made in house; host or cells: insect cells
Assay: CDK2 FlashPlate Assay (inhibition of Rb phosphorylation)
Assay type: biochemical
Conditions: Concentration 0.5 μM; Cyclin E/CDK2, Rb-coated FlashPlates

# annotated cases, reported inhibition at 0.5 µM shown
CCOC(=O)c1ccc(Nc2nc3c4c(ccc3[nH]2)NC(=O)/C4=C\c2[nH]ccc2OC)cc1 :: < 50%
COc1ccc(CCNc2nc3c4c(ccc3[nH]2)NC(=O)/C4=C\c2[nH]ccc2OC)cc1OC :: < 50%
CCOC(=O)CCCNc1nc2c3c(ccc2[nH]1)NC(=O)/C3=C\c1[nH]ccc1OC :: > 50%

Attention now turns to another entry.
Quick check: inhibition at 0.5 µM of "COc1ccc(Nc2nc3c4c(ccc3[nH]2)NC(=O)/C4=C\c2[nH]ccc2OC)cc1" ? < 50%
